- procedure details: Half life in Beagle dog at 1 umol/kg, iv
- Type: ADME, organism-based, Canis lupus familiaris
- setup conditions: in vivo
quantity kind: half-life

{"structure smiles string": "CCCC(=O)c1cc(C#N)c(N2CCC(C(=O)NS(=O)(=O)C3(c4ccccc4)CC3)CC2)nc1SC", "value reported": "5.2 h"}

Attention now turns to another entry.
Request: Recall and state the measured half-life for `CCOC(=O)c1cc(C#N)c(N2CCC(C(=O)NS(=O)(=O)Cc3ccccc3)CC2)nc1C` .
Response: 5.1 h

---

- procedure details: Apparent permeability from apical to basolateral side in human Caco2 cells at 10 uM at pH 6.5 after 60 mins by LC-MS analysis
- Format: ADME, cell-based
- setup conditions: Caco-2, pH 6.5
Binary label based on Papp A→B at 1 h, 10 µM with cut-off 10 nm/s: below gives 1, not below gives 0.

These solved cases illustrate the format of a correct answer.
{"structure smiles string": "CCCC(=O)c1cc(C#N)c(N2CCC(C(=O)NS(=O)(=O)Cc3ccccc3Cl)CC2)nc1C", "group label": 1}
{"structure smiles string": "CCCC(=O)c1cc(C#N)c(N2CCC(C(=O)NS(=O)(=O)Cc3ccc(Cl)cc3)CC2)nc1C", "group label": 1}
{"structure smiles string": "CCCC(=O)c1cc(C#N)c(N2CCC(C(=O)NS(=O)(=O)Cc3ccc(F)cc3F)CC2)nc1C", "group label": 1}
{"structure smiles string": "CCCC(=O)c1cc(C#N)c(N2CCC(C(=O)NS(=O)(=O)C3(c4ccccc4)CC3)CC2)nc1C", "group label": 0}
{"structure smiles string": "CCCC(=O)c1cc(C#N)c(N2CCC(C(=O)NS(=O)(=O)Cc3ccccc3)CC2)nc1C", "group label": 1}

Request: Does the reported Papp A→B at 1 h, 10 µM of the following compound sit strictly below 10 nm/s? `CCCC(=O)c1cc(C#N)c(N2CCC(C(=O)NS(=O)(=O)Cc3ccc(C)c(F)c3)CC2)nc1C`
Response: 1

Request: Does the reported Papp A→B at 1 h, 10 µM of the following compound sit strictly below 10 nm/s? `CCCC(=O)c1cc(C#N)c(N2CCC(C(=O)NS(=O)(=O)Cc3ccc(C)cc3)CC2)nc1C`
Response: 0

---

- procedure details: AUC in Beagle dog at 1 umol/kg, iv
- Type: ADME, organism-based, Canis lupus familiaris
- setup conditions: plasma
quantity kind: AUC (µM·h)
Quick note: give the figure in µM·h, leave out the unit.

{"structure smiles string": "CCCC(=O)c1cc(C#N)c(N2CCC(C(=O)NS(=O)(=O)C3(c4ccccc4)CC3)CC2)nc1SC", "AUC, µM·h": 6.7}

Request: Recall and state the measured AUC for `CCOC(=O)c1cc(C#N)c(N2CCC(C(=O)NS(=O)(=O)Cc3ccccc3)CC2)nc1C` .
Response: 5.9

---

- tested system: P2Y purinoceptor 12 (Homo sapiens, UniProt Q9H244)
- Sequence (Q9H244 whole entry): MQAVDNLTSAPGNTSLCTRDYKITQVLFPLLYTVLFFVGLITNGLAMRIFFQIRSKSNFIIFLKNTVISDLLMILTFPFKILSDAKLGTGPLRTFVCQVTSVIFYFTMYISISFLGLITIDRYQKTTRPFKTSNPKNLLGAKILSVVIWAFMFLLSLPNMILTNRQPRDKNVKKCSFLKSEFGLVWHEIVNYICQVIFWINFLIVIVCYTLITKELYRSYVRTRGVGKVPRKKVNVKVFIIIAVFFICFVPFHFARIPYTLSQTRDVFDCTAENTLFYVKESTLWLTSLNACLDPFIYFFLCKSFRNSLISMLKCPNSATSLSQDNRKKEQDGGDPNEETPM
- procedure details: Displacement of [125I]AZ11931285 from human P2Y12 receptor expressed in CHOK1 cell membrane after 60 seconds
- Set-up: species or system CHO-K1
quantity kind: pIC50
Keep it numeric: pIC50 is minus log10 of the concentration in mol/L.

{"structure smiles string": "CCOC(=O)c1cc(C#N)c(N2CCC(C(=O)NS(=O)(=O)Cc3ccccc3)CC2)nc1C", "quantity kind": "pIC50", "value reported": 7.85}

Request: Recall and state the measured pIC50 for `CCCC(=O)c1cc(C#N)c(N2CCC(C(=O)NS(=O)(=O)C3(c4ccccc4)CC3)CC2)nc1SC` .
Response: 7.64

---

- Test system: Caco-2
- setup conditions: human, caco-2, pH 7.4, 1 h, 10 µM
- Description: Apparent permeability from apical to basolateral side in human Caco2 cells at 10 uM at pH 7.4 after 60 mins by LC-MS analysis
quantity kind: Papp
Give the number first and the unit second.

Request: Recall and state the measured Papp for `CCOC(=O)c1cc(C#N)c(N2CCC(C(=O)NS(=O)(=O)Cc3ccccc3)CC2)nc1C` .
Response: 1 ×10⁻⁶ cm/s

---

- tested system: P2Y purinoceptor 12 (Homo sapiens)
Measured IC50, listed per entry.
Quick note: give the figure in nM, leave out the unit.

Please review the entries below; each comes with its answer.
{"structure smiles string": "CCCC(=O)c1cc(C#N)c(N2CCC(C(=O)NS(=O)(=O)Cc3ccccc3)CC2)nc1SC", "IC50 / nM": 17}
{"structure smiles string": "CCCC(=O)c1cc(C#N)c(N2CCC(C(=O)NS(=O)(=O)C3(c4ccccc4)CC3)CC2)nc1SC", "IC50 / nM": 19}

Request: Report value: IC50, system: P2Y purinoceptor 12 (Homo sapiens), molecule: `CCCC(=O)c1cc(C#N)c(N2CCC(C(=O)NS(=O)(=O)C3(c4ccccc4)CC3)CC2)nc1C`
Response: 160

---

- tested system: P2Y purinoceptor 12 (Homo sapiens, UniProt Q9H244)
- procedure details: Displacement of [125I]AZ11931285 from human P2Y12 receptor expressed in CHOK1 cell membrane after 10 seconds
- Parameters: species or system CHO-K1
quantity kind: IC50 (nM)
Quick note: give the figure in nM, leave out the unit.

{"structure smiles string": "CCOC(=O)c1cc(C#N)c(N2CCC(C(=O)NS(=O)(=O)Cc3ccccc3)CC2)nc1C", "IC50 [nM]": 44}

Request: Recall and state the measured IC50 for `CCCC(=O)c1cc(C#N)c(N2CCC(C(=O)NS(=O)(=O)C3(c4ccccc4)CC3)CC2)nc1SC` .
Response: 126

---

- tested system: P2Y purinoceptor 12 (Homo sapiens)
- procedure details: Displacement of [125I]AZ11931285 from human P2Y12 receptor expressed in CHOK1 cell membrane after 30 seconds
- Set-up: species or system CHO-K1
quantity kind: IC50

{"structure smiles string": "CCOC(=O)c1cc(C#N)c(N2CCC(C(=O)NS(=O)(=O)Cc3ccccc3)CC2)nc1C", "tested system": "P2Y purinoceptor 12 (Homo sapiens)", "IC50": "22 nM"}

Attention now turns to another entry.
Request: Report value: IC50, system: P2Y purinoceptor 12 (Homo sapiens), compound: `CCCC(=O)c1cc(C#N)c(N2CCC(C(=O)NS(=O)(=O)C3(c4ccccc4)CC3)CC2)nc1SC`
Response: 41 nM

---

Measured logD, listed per entry.
- procedure details: physchem
- setup conditions: buffer, pH 7.4
- Description: Lipophilicity, log D of the compound at pH 7.4 by HPLC analysis
Write no unit; give the number alone.

{"molecule": "CCCC(=O)c1cc(C#N)c(N2CCC(C(=O)NS(=O)(=O)Cc3ccc(F)cc3F)CC2)nc1C", "logD": 3}
{"molecule": "CCCC(=O)c1cc(C#N)c(N2CCC(C(=O)NS(=O)(=O)Cc3ccccc3)CC2)nc1CCC", "logD": 3.7}
{"molecule": "CCOC(=O)c1cc(C#N)c(N2CCC(C(=O)NS(=O)(=O)Cc3ccccc3)CC2)nc1C", "logD": 2.8}

Request: Recall and state the measured logD for `CCCC(=O)c1cc(C#N)c(N2CCC(C(=O)NS(=O)(=O)Cc3ccccc3)CC2)nc1OC` .
Response: 3

Request: Recall and state the measured logD for `CCCC(=O)c1cc(C#N)c(N2CCC(C(=O)NS(=O)(=O)Cc3ccccc3Cl)CC2)nc1C` .
Response: 3.1

Request: Recall and state the measured logD for `CCCC(=O)c1cc(C#N)c(N2CCC(C(=O)NS(=O)(=O)Cc3ccc(C)cc3)CC2)nc1C` .
Response: 3.4

Request: Recall and state the measured logD for `CCCC(=O)c1cc(C#N)c(N2CCC(C(=O)NS(=O)(=O)Cc3ccc(C)c(F)c3)CC2)nc1C` .
Response: 3.4

Request: Recall and state the measured logD for `CCCC(=O)c1cc(C#N)c(N2CCC(C(=O)NS(=O)(=O)Cc3ccc(Cl)cc3)CC2)nc1C` .
Response: 3.4

Request: Recall and state the measured logD for `CCCC(=O)c1cc(C#N)c(N2CCC(C(=O)NS(=O)(=O)Cc3ccccc3)CC2)nc1SC` .
Response: 3.1

Request: Recall and state the measured logD for CCCC(=O)c1cc(C#N)c(N2CCC(C(=O)NS(=O)(=O)C(C)c3ccccc3)CC2)nc1C (racemic) .
Response: 3.3

Request: Recall and state the measured logD for `CCCC(=O)c1cc(C#N)c(N2CCC(C(=O)NS(=O)(=O)Cc3ccccc3)CC2)nc1CF` .
Response: 2.7

Request: Recall and state the measured logD for `CCCC(=O)c1cc(C#N)c(N2CCC(C(=O)NS(=O)(=O)C3(c4ccccc4)CC3)CC2)nc1C` .
Response: 3.9

Request: Recall and state the measured logD for `CCCC(=O)c1cc(C#N)c(N2CCC(C(=O)NS(=O)(=O)Cc3ccccc3)CC2)nc1C` .
Response: 2.8

---

- procedure details: in vitro
- setup conditions: human, Caco-2, pH 7.4
- Description: Apparent permeability from apical to basolateral side in human Caco2 cells at 10 uM at pH 7.4 after 60 mins by LC-MS analysis
Measured Papp A→B at 1 h, 10 µM, listed per entry.
Quick note: give the figure in nm/s, leave out the unit.

Please review the entries below; each comes with its answer.
{"structure smiles string": "CCCC(=O)c1cc(C#N)c(N2CCC(C(=O)NS(=O)(=O)Cc3ccccc3)CC2)nc1C", "Papp A→B at 1 h, 10 µM, nm/s": 3.2}
{"structure smiles string": "CCCC(=O)c1cc(C#N)c(N2CCC(C(=O)NS(=O)(=O)Cc3ccccc3)CC2)nc1CCC", "Papp A→B at 1 h, 10 µM, nm/s": 12}
{"structure smiles string": "CCCC(=O)c1cc(C#N)c(N2CCC(C(=O)NS(=O)(=O)Cc3ccccc3)CC2)nc1SC", "Papp A→B at 1 h, 10 µM, nm/s": 3}

Attention now turns to another entry.
Request: Recall and state the measured Papp A→B at 1 h, 10 µM for `CCCC(=O)c1cc(C#N)c(N2CCC(C(=O)NS(=O)(=O)C3(c4ccccc4)CC3)CC2)nc1SC` .
Response: 20
